Endpoint: MIC. System: S. pneumoniae UNT-039, MP-627, TP1517 (mefA). Items follow.

Use the examples below as a reference point.
API: value(readout= MIC, system= S. pneumoniae UNT-039, MP-627, TP1517 (mefA), query= CSC1O[C@H]([C@H](NC(=O)[C@H]2NC[C@@H]3CC=CCO[C@H]32)[C@H](C)Cl)C(O)[C@@H](O)[C@H]1O (stereo partly shown) ) ≤ 0.0313 µg/mL

API: value(readout= MIC, system= S. pneumoniae UNT-039, MP-627, TP1517 (mefA), query= CSC1O[C@H]([C@H](NC(=O)[C@@H]2[C@@H]3OCCCC[C@H]3CN2C)[C@H](C)Cl)C(O)[C@@H](O)[C@H]1O (stereo partly shown) ) ≤ 0.0313 µg/mL

Continuing:
API: value(readout= MIC, system= S. pneumoniae UNT-039, MP-627, TP1517 (mefA), query= CSC1O[C@H]([C@H](NC(=O)[C@H]2NC[C@@H]3CC(F)(F)CCO[C@H]32)[C@H](C)Cl)C(O)[C@@H](O)[C@H]1O (stereo partly shown) ) ≤ 0.0313 µg/mL

API: value(readout= MIC, system= S. pneumoniae UNT-039, MP-627, TP1517 (mefA), query= CSC1O[C@H]([C@H](NC(=O)[C@H]2NC[C@@H]3C[C@H]4OC(C)(C)O[C@H]4CO[C@H]32)[C@H](C)Cl)C(O)[C@@H](O)[C@H]1O (stereo partly shown) ) 2 µg/mL

---

test system: P. aeruginosa MMX Mex parent strain; experiment: MIC against P. aeruginosa MMX Mex parent strain; assay type: cell-based; settings: Pseudomonas aeruginosa
assay-metric: MIC

Use the examples below as a reference point.
Fill in the blank: the reported MIC of CSC1O[C@H]([C@H](NC(=O)[C@H]2NC[C@H]3CC=CCO[C@H]32)[C@H](C)Cl)C(O)[C@@H](O)[C@H]1O (some centres unmarked) is ____. > 32 µg/mL

Fill in the blank: the reported MIC of CSC1O[C@H]([C@H](NC(=O)[C@H]2NC[C@@H]3C=C(c4ccc(F)cc4)CCO[C@@H]23)[C@H](C)Cl)C(O)[C@@H](O)[C@H]1O (some centres unmarked) is ____. > 32 µg/mL

Fill in the blank: the reported MIC of CSC1O[C@H]([C@H](NC(=O)[C@H]2NC[C@@H]3C=C(c4ccc(C(F)(F)F)cc4)CCO[C@@H]23)[C@H](C)Cl)C(O)[C@@H](O)[C@H]1O (some centres unmarked) is ____. > 64 µg/mL

Continuing:
Fill in the blank: the reported MIC of CSC1O[C@H]([C@H](NC(=O)[C@H]2NC[C@@H]3CC(c4ccc(C(F)(F)F)cc4)=CCO[C@H]32)[C@H](C)Cl)C(O)[C@@H](O)[C@H]1O (some centres unmarked) is ____. > 64 µg/mL

Fill in the blank: the reported MIC of CSC1O[C@H]([C@H](NC(=O)[C@H]2NC[C@@H]3C=C(c4ccccc4)CCO[C@@H]23)[C@H](C)Cl)C(O)[C@@H](O)[C@H]1O (some centres unmarked) is ____. > 32 µg/mL

---

test system: S. aureus Micromyx USA 300; experiment: MIC against S. aureus Micromyx USA 300; type: cell-based; details: Staphylococcus aureus, USA300; S. aureus Micromyx USA 300; read-out: MIC
The entries below come with measured MIC values attached.
Form entry: value (µg/mL) — number only.

Use the examples below as a reference point.
Fill in the blank: the reported MIC of CSC1O[C@H]([C@H](NC(=O)[C@H]2NC[C@@H]3C=C(c4ccc(F)cc4)CCO[C@@H]23)[C@H](C)Cl)C(O)[C@@H](O)[C@H]1O (stereo partly shown) is ____. 0.5

Fill in the blank: the reported MIC of CSC1O[C@H]([C@H](NC(=O)[C@H]2NC[C@@H]3CC(c4ccccc4)=CCO[C@H]32)[C@H](C)Cl)C(O)[C@@H](O)[C@H]1O (stereo partly shown) is ____. 0.5

Fill in the blank: the reported MIC of CSC1O[C@H]([C@H](NC(=O)[C@H]2NC[C@@H]3CC(c4ccc(F)cc4)=CCO[C@H]32)[C@H](C)Cl)C(O)[C@@H](O)[C@H]1O (stereo partly shown) is ____. 1

Fill in the blank: the reported MIC of CSC1O[C@H]([C@H](NC(=O)[C@H]2NC[C@@H]3C=C(c4ccc(C(F)(F)F)cc4)CCO[C@@H]23)[C@H](C)Cl)C(O)[C@@H](O)[C@H]1O (stereo partly shown) is ____. 0.5

Fill in the blank: the reported MIC of CSC1O[C@H]([C@H](NC(=O)[C@H]2NC[C@@H]3C[C@@H](c4ccc(C(F)(F)F)cc4)CCO[C@H]32)[C@H](C)Cl)C(O)[C@@H](O)[C@H]1O (stereo partly shown) is ____. 0.5

Continuing:
Fill in the blank: the reported MIC of CSC1O[C@H]([C@H](NC(=O)[C@H]2NC[C@@H]3CC=CCO[C@H]32)[C@H](C)Sc2ccc(-c3cncnc3)cc2)C(O)[C@@H](O)[C@H]1O (stereo partly shown) is ____. 1

Fill in the blank: the reported MIC of CSC1O[C@H]([C@H](NC(=O)[C@H]2NC[C@@H]3CC(c4ccc(C(F)(F)F)cc4)=CCO[C@H]32)[C@H](C)Cl)C(O)[C@@H](O)[C@H]1O (stereo partly shown) is ____. 0.12

---

system: S. pneumoniae ATCC 49619; test: MIC against S. pneumoniae ATCC 49619; assay type: cell-based; settings: Streptococcus pneumoniae, ATCC49619; S. pneumoniae ATCC 49619; read-out: MIC
The entries below come with measured MIC values attached.

Fill in the blank: the reported MIC of CSC1O[C@H]([C@H](NC(=O)[C@@H]2[C@@H]3OCC=CC[C@H]3CN2C)[C@H](C)Sc2ccc(-c3cncnc3)cc2)C(O)[C@@H](O)[C@H]1O (some centres unmarked) [FSA-212034] is ____. ≤ 0.06 µg/mL

Fill in the blank: the reported MIC of CSC1O[C@H]([C@H](NC(=O)[C@@H]2[C@@H]3OCCCC[C@H]3CN2C)[C@H](C)Cl)C(O)[C@@H](O)[C@H]1O (some centres unmarked) [FSA-24040] is ____. ≤ 0.0313 µg/mL

Fill in the blank: the reported MIC of CSC1O[C@H]([C@H](NC(=O)[C@H]2NC[C@@H]3CC(c4ccc(F)cc4)=CCO[C@H]32)[C@H](C)Cl)C(O)[C@@H](O)[C@H]1O (some centres unmarked) [FSA-507057] is ____. ≤ 0.06 µg/mL

Continuing:
Fill in the blank: the reported MIC of CSC1O[C@H]([C@H](NC(=O)[C@H]2NC[C@@H]3CC(c4ccc(C(F)(F)F)cc4)=CCO[C@H]32)[C@H](C)Cl)C(O)[C@@H](O)[C@H]1O (some centres unmarked) [FSA-507060] is ____. 0.5 µg/mL

Fill in the blank: the reported MIC of CSC1O[C@H]([C@H](NC(=O)[C@H]2NC[C@@H]3C[C@H](c4ccc(C#N)cc4)CCO[C@H]32)[C@H](C)Cl)C(O)[C@@H](O)[C@H]1O (some centres unmarked) [FSA-512081b] is ____. ≤ 0.06 µg/mL

Fill in the blank: the reported MIC of C=CC1=CCO[C@@H]2[C@H](CN[C@@H]2C(=O)N[C@H]([C@H](C)Cl)[C@H]2OC(SC)[C@H](O)[C@H](O)C2O)C1 (some centres unmarked) [FSA-507041] is ____. < 0.03 µg/mL

Fill in the blank: the reported MIC of CSC1O[C@H]([C@H](NC(=O)[C@H]2NC[C@@H]3CC(c4cccc5cnccc45)=CCO[C@H]32)[C@H](C)Cl)C(O)[C@@H](O)[C@H]1O (some centres unmarked) [FSA-510006] is ____. 1 µg/mL

Fill in the blank: the reported MIC of CSC1O[C@H]([C@H](NC(=O)[C@H]2NC[C@@H]3C[C@@H](CCc4cccc(F)c4)CCO[C@H]32)[C@H](C)Cl)C(O)[C@@H](O)[C@H]1O (some centres unmarked) [FSA-510022] is ____. ≤ 0.06 µg/mL

Fill in the blank: the reported MIC of CSC1O[C@H]([C@H](NC(=O)[C@H]2NC[C@@H]3CC(NC4CC4)CCO[C@H]32)[C@H](C)Cl)C(O)[C@@H](O)[C@H]1O (some centres unmarked) [FSA-510011] is ____. 8 µg/mL

Fill in the blank: the reported MIC of CSC1O[C@H]([C@H](NC(=O)[C@H]2NC[C@@H]3C[C@@H](c4ccc(C#N)cc4)CCO[C@H]32)[C@H](C)Cl)C(O)[C@@H](O)[C@H]1O (some centres unmarked) [FSA-511046] is ____. ≤ 0.06 µg/mL

Fill in the blank: the reported MIC of CSC1O[C@H]([C@H](NC(=O)[C@H]2NC[C@@H]3CC(c4ccc(C#N)cc4)=CCO[C@H]32)[C@H](C)Cl)C(O)[C@@H](O)[C@H]1O (some centres unmarked) [FSA-511033] is ____. ≤ 0.06 µg/mL
